Origin of measurements: patent US4980377A

Give measured Affected foetuses, number for each item. Keep answers brief.
system: gravid White New Zealand female rabbits; experiment: Teratogenicity in gravid White New Zealand rabbits; assay type: in vivo, rabbit; details: 10 mg/kg daily, day 5 to day 18 of gestation
Where a name gives a salt, the structure may show the parent alone.
One number for each entry.

Sample records with Affected foetuses, number:
{"compound": "CC(C)NC(C)C(=O)c1cccc(N)c1 (stereo not drawn)", "Affected foetuses, number": 1}
{"compound": "CC(C)NC(C)C(=O)c1ccc(N)cc1 (stereo not drawn) [CRL 41 153, dihydrochloride]", "Affected foetuses, number": 1}
{"compound": "Nc1ccc(C(=O)CN2CCCCC2)cc1 [A 18, reference compound]", "Affected foetuses, number": 10}

State the recorded Affected foetuses, number for every item in the following list.
1. Nc1ccc(C(=O)CCN2CCSCC2)cc1 [A 13, reference compound]
2. Nc1ccc(C(=O)CN2CCOCC2)cc1 [A 16, 1-(4-aminophenyl)-2-morpholinylethanone, reference compound]
3. CC(C)NC(C)C(=O)c1ccc(N)c(Cl)c1 (stereo not drawn) [CRL 41 221, hydrochloride]
4. CC(C(=O)c1ccc(N)cc1)N1CCOCC1 (stereo not drawn) [CRL 41 237, dihydrochloride]
5. Nc1ccc(C(=O)CN2CCCC2)cc1 [A 20, reference compound]

### Response
1: 12; 2: 13; 3: 1; 4: 1; 5: 5

### Prompt Report Affected foetuses, number for Nc1ccc(C(=O)CCCN2CCCCC2)cc1 [A 5, reference compound] please.
### Response 4

###

system: gravid White New Zealand female rabbits; assay: Teratogenicity in gravid White New Zealand rabbits; assay type: in vivo, rabbit; conditions: 10 mg/kg daily, day 5 to day 18 of gestation
1 means recorded Total foetuses (live) is 80 or above; 0 means it is below 80.

{"compound": "CC(C(=O)c1ccc(N)cc1)N(C)C (centres unmarked)", "measured_on": "gravid White New Zealand female rabbits", "discrete_label": 1}
{"compound": "CC(C)NCC(=O)c1ccc(N)cc1 [A 14, reference compound]", "measured_on": "gravid White New Zealand female rabbits", "discrete_label": 0}
{"compound": "Nc1ccc(C(=O)CN2CCOCC2)cc1 [A 16, 1-(4-aminophenyl)-2-morpholinylethanone, reference compound]", "measured_on": "gravid White New Zealand female rabbits", "discrete_label": 0}
{"compound": "CC(C)NC(C)C(=O)c1cccc(N)c1 (centres unmarked)", "measured_on": "gravid White New Zealand female rabbits", "discrete_label": 1}
{"compound": "Nc1ccc(C(=O)CCN2CCOCC2)cc1 [A 9, reference compound]", "measured_on": "gravid White New Zealand female rabbits", "discrete_label": 1}

### Prompt Evaluate Nc1ccc(C(=O)CCCN2CCCCC2)cc1 [A 5, reference compound] : Total foetuses (live) at minimum 80?
### Response 1

### Prompt # check: Total foetuses (live) of CC(C(=O)c1cccc(N)c1)N(C)C (centres unmarked) is greater than or equal to 80
### Response 1

### Prompt Threshold query (Total foetuses (live) >= 80) on CC(C(=O)c1ccc(N)cc1)N1CCSCC1 (centres unmarked)
### Response 1

###

test system: CNS; assay: Neuropsychopharmacological profile as a whole; format: in vivo, mice and rats; conditions: conclusion of the tests
Counter-ions that a name gives are not always drawn.

{"compound": "CC(NC1CC1)C(=O)c1ccc(N)cc1 (centres unmarked)", "Stimulant effects (overall)": "stimulant effects"}
{"compound": "CC(C(=O)c1ccc(N)cc1)N1CCOCC1 (centres unmarked) [CRL 41 237, dihydrochloride]", "Stimulant effects (overall)": "stimulant effects"}
{"compound": "CNC(C)C(=O)c1ccc(N)cc1 (centres unmarked) [CRL 41 218, dihydrochloride]", "Stimulant effects (overall)": "stimulant effects"}
